System: HIV strain E, mutations L100I and K103N in HIV reverse transcriptase
Experiment: cellular antiviral assay, strain E
Assay type: cell-based
Details: strain E, L100I and K103N
readout-label: pEC50 E

>>> print(df.to_string())
                                   compound  readout_label  reported
0  Cc1noc(-c2cnc(Nc3ccc(C#N)cc3)nc2Nc2c(C)cc(/C=C/C#N)cc2C)n1        pEC50 E       7.7
1  Cc1cc(/C=C/C#N)cc(C)c1Nc1nc(Nc2ccc(C#N)cc2)ncc1-c1ncccc1N        pEC50 E       7.1
2  Cc1cc(/C=C/C#N)cc(C)c1Nc1nc(Nc2ccc(C#N)cc2)ncc1-c1nc(-c2ccco2)no1        pEC50 E       4.6
3  Cc1cc(/C=C/C#N)cc(C)c1Nc1nc(Nc2ccc(C#N)cc2)ncc1-c1nc(-c2cccs2)no1        pEC50 E       5.0
4  Cc1cc(C=CC#N)cc(C)c1Nc1nc(Nc2ccc(C#N)cc2)ncc1-c1nc(-c2ccccc2)no1 (mixture of isomers)        pEC50 E         7

---

Tested on: HIV strain D, mutation Y188L in HIV reverse transcriptase
Test: cellular antiviral assay, strain D
Assay type: cell-based
Settings: Human immunodeficiency virus 1, read-out: pEC50 D (converted)
readout-label: EC50

>>> print(df.to_string())
                                   compound  reported
0  Cc1cc(/C=C/C#N)cc(C)c1Nc1nc(Nc2ccc(C#N)cc2)ncc1-c1cccnc1 [Compound 2]   3.98 nM
1  Cc1cc(/C=C/C#N)cc(C)c1Nc1nc(Nc2ccc(C#N)cc2)ncc1-c1ccco1 [Compound 3]   2.51 nM
2  N#C/C=C/c1cc(F)c(Nc2nc(Nc3ccc(C#N)cc3)ncc2-n2cccc2)c(Cl)c1 [Compound 4]   12.6 nM
3  Cc1cc(/C=C/C#N)cc(C)c1Nc1nc(Nc2ccc(C#N)cc2)ncc1-n1cccc1 [Compound 1]   6.31 nM
